Molecular target: SARS-CoV-2 nsp3-mac1 (Severe acute respiratory syndrome coronavirus 2, UniProt P0DTD1)
Assay: biochemical
Format: biochemical
Conditions: SARS-CoV-2 nsp3 macrodomain TR-FRET single point, concentration 50.0 uM
Please respond with reported perc_inhibition_mean for every item in the list.
Number in %, nothing else.

Exam item: # return recorded perc_inhibition_mean for input c1ccc(Cn2ncc3c2CCC[C@@H]3Nc2ncnc3[nH]ccc23)cc1
Marked response: 5.848

Exam item: # return recorded perc_inhibition_mean for input O=C(Nc1cnc2[nH]ncc2c1)C1(c2ccccc2)CC1
Marked response: 3.207

Exam item: # return recorded perc_inhibition_mean for input Cc1cc(C(=O)Nc2[nH]nc3nc(O)ccc23)c2c(C)nn(C)c2n1
Marked response: -6.166

Exam item: # return recorded perc_inhibition_mean for input O=C(CNc1ncnc2[nH]ccc12)N1CCc2ccccc21
Marked response: 1.193

Exam item: # return recorded perc_inhibition_mean for input NS(=O)(=O)c1ccccc1CNc1ncnc2[nH]ccc12
Marked response: 3.656

Exam item: # return recorded perc_inhibition_mean for input FC(F)(F)CO[C@@H]1CCCN(c2ncnc3[nH]ccc23)C1
Marked response: 22.218

Exam item: # return recorded perc_inhibition_mean for input O=S(=O)(Nc1cnc2[nH]ncc2c1)c1cnn(C2CCCC2)c1
Marked response: 0.415

Exam item: # return recorded perc_inhibition_mean for input OC[C@@]1(Cc2ccc(F)cc2)CCN(c2ncnc3[nH]ccc23)C1
Marked response: 5.07

Exam item: # return recorded perc_inhibition_mean for input Cn1nc(NC(=O)c2cc(-c3ccco3)[nH]n2)c2nccnc21
Marked response: -5.398

Exam item: # return recorded perc_inhibition_mean for input Fc1ccc(F)c(Sc2ncnc3[nH]ccc23)c1
Marked response: -1.149

Exam item: # return recorded perc_inhibition_mean for input CN(Cc1nccn1Cc1ccccc1)c1ncnc2[nH]ccc12
Marked response: -7.218

Exam item: # return recorded perc_inhibition_mean for input O=C1CC[C@H](COC(=O)c2ncnc3[nH]ccc23)CCN1
Marked response: -7.865

Exam item: # return recorded perc_inhibition_mean for input C[C@@H](O)[C@@H]1CN(C(=O)c2ncnc3[nH]ccc23)CCO1
Marked response: -3.131

Exam item: # return recorded perc_inhibition_mean for input Cc1cccc2oc(CCNc3ncnc4[nH]ccc34)nc12
Marked response: -3.259

Exam item: # return recorded perc_inhibition_mean for input OC[C@H](Cc1ccccc1)Nc1ncnc2[nH]ccc12
Marked response: -1.29

Exam item: # return recorded perc_inhibition_mean for input NC(=O)[C@@H]1CCN(C(=O)c2cnc3[nH]c(=O)[nH]c(=O)c3c2)C1
Marked response: -6.322

Exam item: # return recorded perc_inhibition_mean for input C[C@]1(C(=O)O)CCCN1C(=O)c1ncnc2[nH]ccc12
Marked response: -5.285

Exam item: # return recorded perc_inhibition_mean for input O=C(Nc1ccc(O)cc1)Nc1ccc(Oc2ccccc2)cc1
Marked response: -3.306

Exam item: # return recorded perc_inhibition_mean for input Cn1c(C(=O)NCCn2cccc2)cc2c(=O)n3ccccc3nc21
Marked response: 2.262

Exam item: # return recorded perc_inhibition_mean for input O=C(Nc1cnc2[nH]ncc2c1)c1noc2c1CCCC2
Marked response: -1.398

Exam item: # return recorded perc_inhibition_mean for input Cc1[nH]c2ncnc(NC(=O)c3ncn(-c4ccccc4)n3)c2c1C
Marked response: 7.104

###

Molecular target: UniProt P0DTD1
Experiment: biochemical
Assay type: biochemical
Settings: SARS-CoV-2 nsp3 macrodomain TR-FRET single point, concentration 50.0 uM
Please respond with reported perc_inhibition_mean for every item in the list.
Number in %, nothing else.

Exam item: State perc_inhibition_mean on UniProt P0DTD1. Entry: Cc1noc(CCCNC(=O)c2ncnc3[nH]ccc23)n1 [ASAP-0000116]
Marked response: -5.133

Exam item: State perc_inhibition_mean on UniProt P0DTD1. Entry: COCc1cc(CNc2nc3[nH]cnc3c(=O)[nH]2)on1 [ASAP-0000117]
Marked response: 2.984

Exam item: State perc_inhibition_mean on UniProt P0DTD1. Entry: O=C(O)[C@H]1CCCCCN1C(=O)c1ncnc2[nH]ccc12 [ASAP-0000072]
Marked response: 11.75

Exam item: State perc_inhibition_mean on UniProt P0DTD1. Entry: O=C(Cc1ccon1)Nc1ncnc2[nH]cnc12 [ASAP-0000102]
Marked response: -1.615

Exam item: State perc_inhibition_mean on UniProt P0DTD1. Entry: O=S(=O)(NC[C@H]1CCOC1)c1cn2c(n1)CCCC2 [ASAP-0000100]
Marked response: -3.203

Exam item: State perc_inhibition_mean on UniProt P0DTD1. Entry: COCc1cc(CC(=O)Nc2ncnc3[nH]cnc23)no1 [ASAP-0000129]
Marked response: 2.968

Exam item: State perc_inhibition_mean on UniProt P0DTD1. Entry: COc1cccc(Cl)c1CNc1ncnc2[nH]ncc12 [ASAP-0000002]
Marked response: -1.826

Exam item: State perc_inhibition_mean on UniProt P0DTD1. Entry: O=S(=O)(NC[C@@H]1CCCCO1)c1cn2c(n1)CCCC2 [ASAP-0000105]
Marked response: -5.386

Exam item: State perc_inhibition_mean on UniProt P0DTD1. Entry: COc1ccccc1CN(C[C@@H]1CCCO1)c1ncnc2[nH]ccc12 [ASAP-0000107]
Marked response: 4.74

Exam item: State perc_inhibition_mean on UniProt P0DTD1. Entry: CN(CCOc1ccccc1)c1ncnc2[nH]ccc12 [ASAP-0000026]
Marked response: -2.258

Exam item: State perc_inhibition_mean on UniProt P0DTD1. Entry: Cc1nc(NC(=O)[C@@H]2CCCOC2)c2ccnc-2[nH]1 [ASAP-0000078]
Marked response: -3.202

Exam item: State perc_inhibition_mean on UniProt P0DTD1. Entry: Fc1ccc(Oc2cc(CNc3ncnc4nc[nH]c34)ccn2)cc1 [ASAP-0000021]
Marked response: 2.011

Exam item: State perc_inhibition_mean on UniProt P0DTD1. Entry: Cc1cc(NCc2ncccc2O)ncn1 [ASAP-0000124]
Marked response: -3.335

Exam item: State perc_inhibition_mean on UniProt P0DTD1. Entry: O=C1C[C@@]2(CCCN(c3ncnc4[nH]ccc34)C2)CN1 [ASAP-0000094]
Marked response: -2.451

Exam item: State perc_inhibition_mean on UniProt P0DTD1. Entry: CCn1cc(CNc2cc3c(O)ncnc3cn2)nn1 [ASAP-0000189]
Marked response: 1.671

Exam item: State perc_inhibition_mean on UniProt P0DTD1. Entry: CSc1ccccc1NC(=O)c1ncnc2[nH]ccc12 [ASAP-0000190]
Marked response: -5.805

Exam item: State perc_inhibition_mean on UniProt P0DTD1. Entry: Cn1nc(NCc2cc3c(=O)[nH]ccc3o2)c2nccnc21 [ASAP-0000095]
Marked response: -1.007

Exam item: State perc_inhibition_mean on UniProt P0DTD1. Entry: CO[C@@H](CNc1ncnc2[nH]ccc12)c1cccc(Cl)c1 [ASAP-0000247]
Marked response: 4.096

Exam item: State perc_inhibition_mean on UniProt P0DTD1. Entry: CN(C)[C@@H]1CCCN(C(=O)c2cnc3c(c2)c(=O)[nH]c(=O)n3C)CC1 [ASAP-0000058]
Marked response: -8.971

Exam item: State perc_inhibition_mean on UniProt P0DTD1. Entry: Clc1cnc(OCCNc2ncnc3[nH]ccc23)c(Cl)c1 [ASAP-0000246]
Marked response: -4.296

The reported measurements were obtained from paper doi:10.1101/2024.08.19.608619.
